# tgt: human recombinant 6His-Nterm SHP2 full-length (Thr2-Arg593) (Homo sapiens, UniProt Q06124)
# Construct: 6His-Nterm SHP2 full-length (Thr2-Arg593, R&D system); 6His (N)
# Sequence (Q06124 2-593): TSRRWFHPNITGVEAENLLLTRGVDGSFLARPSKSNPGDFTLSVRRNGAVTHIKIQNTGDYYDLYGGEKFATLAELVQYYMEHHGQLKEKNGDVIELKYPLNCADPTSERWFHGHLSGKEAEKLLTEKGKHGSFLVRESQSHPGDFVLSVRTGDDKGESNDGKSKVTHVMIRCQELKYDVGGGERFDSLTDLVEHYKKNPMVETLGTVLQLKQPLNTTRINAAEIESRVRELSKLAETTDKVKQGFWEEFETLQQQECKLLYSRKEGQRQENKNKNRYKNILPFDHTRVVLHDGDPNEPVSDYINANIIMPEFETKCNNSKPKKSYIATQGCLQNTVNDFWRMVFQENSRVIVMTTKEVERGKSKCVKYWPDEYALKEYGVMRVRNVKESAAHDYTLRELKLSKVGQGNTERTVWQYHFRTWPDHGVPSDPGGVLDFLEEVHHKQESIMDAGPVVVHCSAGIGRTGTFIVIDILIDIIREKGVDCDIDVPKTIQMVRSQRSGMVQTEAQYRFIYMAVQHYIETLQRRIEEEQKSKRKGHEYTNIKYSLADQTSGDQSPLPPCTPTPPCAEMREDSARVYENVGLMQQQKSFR
# assay-comment: SHP2 Phosphatase Assay (DiFMUP fluorescence)
# particulars: SHP2 0.2 nM pre-incubated with 100 nM bi-phosphorylated activating peptide; compound 1000-0.05 nM, 30 min pre-incubation; DiFMUP 20 µM, 45 min, room temperature; 10-concentration dose-response
Counter-ions that a name gives are not always drawn.
observable: IC50 (nM)

INSERT INTO measurements (compound, observable, test_result) VALUES
  ('COc1ccc2c(c1)[C@@H](N)C1(CCN(c3nc(C)c(-c4cc(C(F)(F)F)nn4C)n4nccc34)CC1)C2 [Compound 127, hydrochloride]', 'IC50', 22);

1 = Cc1nc(N2CCC3(CC2)Cc2ncccc2[C@H]3N)c2ccnn2c1-c1ccc(N(C)C)nc1
2 = Cc1nocc1-c1c(C)nc(N2CCC3(CC2)Cc2ccccc2[C@H]3N)c2ccnn12
3 = Cc1cc(-c2c(C)nc(N3CCC4(CC3)Cc3ncccc3[C@H]4N)c3ccnn23)n(C)n1
Q: Please produce an ascending ranking of these compounds based on IC50. Answer by listing the labels in the requested order.
A: 1, 3, 2
